Where do the numbers come from? From PubChem BioAssay (NCI).

System: PC-3 prostate
Test: NCI tumour cell line growth inhibition, 48 h; in the data active means GI50 below about 0.43 µM; inactive means the rest
Answer with one of the outcomes given here: YES = active, NO = inactive

// known answers, use as guide
COc1ccc(S(=O)(=O)Nc2cc(Sc3cccc4cccnc34)c(O)c3ccccc23)cc1 NO
COC(=O)Nc1nc2ccc(C(=O)c3cccs3)cc2[nH]1 YES
CSc1nc2ccc(C)cc2cc1/C=C1/C=C(c2ccccc2)NC1=O NO
Cn1cccc1-c1cc(-c2ccccc2)nc(N)c1C#N NO

Problem: Tell me the recorded outcome of this test for CCOC(=O)N(O)c1ccc(/C=C/c2ccccc2)cc1 .
Result: NO

---

Test system: OVCAR-8 ovarian
Assay: NCI tumour cell line growth inhibition, 48 h
PROPERTY_MEASURED: GI50

COC(=O)Nc1nc2ccc(C(=O)c3cccs3)cc2[nH]1 0.487 µM
N#Cc1cc2c(cc1Cl)SC(=Nc1ccccc1)N(S(=O)(=O)c1ccc(Br)s1)S2(=O)=O 18.9 µM
c1ccc(-c2cc3n4c(-c5ccccc5)nn(-c5ccccc5)c4cnc-3n2)cc1 > 50 µM
CC(=O)[O][Hg][c]1s[c]([Hg][O]C(C)=O)[c]([Hg][O]C(C)=O)[c]1[Hg][O]C(C)=O 2.93 µM
COc1ccc(/C=C/C(=O)c2ccc(Nc3nc(Nc4ccc(F)cc4)nc(Nc4ccc(F)cc4)n3)cc2)cc1 8.49 µM
Cc1c2ccccc2c(C)n2c1nc1cc(Cl)c(Cl)cc12 > 100 µM
COc1cc2c(=O)n(CC3CCCCC3)c3c4cc[nH]c4ncc3c2cc1OC 5 µM
C1CC[N-]CC1.CC(=N\O)/C(C)=N/O.CC(=N\O)/C(C)=N/O.C[CH-]C(C)O.[Co+2] 21.2 µM

Turning now to a further compound:
Problem: Write GI50 of CCCCCCCCc1cc(O)ccc1O ; system used: OVCAR-8 ovarian
Result: 29.2 µM

---

Tested on: U251 CNS
Experiment: NCI tumour cell line growth inhibition, 48 h
PROPERTY_MEASURED: TGI

Reference set, count: 10
COMPOUND	TGI
Cc1cc(OCC(O)CO)ccc1Cl (configuration not stated)	> 100 µM
COc1ccc(F)cc1-c1ccnc2[nH]c(C3=CCN(C4CCC(CC(=O)O)CC4)CC3)cc12 (configuration not stated)	> 100 µM
CC(=O)OC1=C(CC(C)(C)C)C(=O)c2ccccc2C1=O	> 100 µM
O=C(CN1CCN(c2ccccn2)CC1)N1CCCn2c1nc1ccccc1c2=O	> 100 µM
O=C1c2cc3ncsc3cc2C(=O)c2c(O)ccc(O)c21	> 100 µM
Cc1cc2nc(-c3ccc(O)c(O)c3)n(Cc3ccc(O)c(O)c3)c2cc1C	> 100 µM
Cc1c2ccccc2c(C)n2c1nc1cc(Cl)c(Cl)cc12	> 100 µM
O=C(O)C1CSC2(CCCN(Cc3ccccc3)C2)N1 (configuration not stated)	> 100 µM
Nc1ccn(C2CC3OCC3O2)c(=O)n1 (configuration not stated)	> 100 µM
CCN(CC)CCNc1ccc([N+](=O)[O-])c2nc3ccc(OC)cc3c(N)c12	3.06 µM

List reported TGI for each of these compounds:
1. CCOc1ccccc1N=Cc1c2ccccc2cc2ccccc12
2. COc1ccc(C2=NN(c3nsc4ccccc34)C(=O)CC2)cc1
3. O=C(N/C(=C\c1ccc(F)cc1)c1nc2ccccc2[nH]1)c1ccccc1
4. CSc1c(C)n([O-])c2cc(Cl)c(Cl)cc2[n+]1=O
5. CCN(CCC#N)C(=O)Nc1ccccc1

Result:
1: > 63.9 µM; 2: > 100 µM; 3: > 100 µM; 4: 46.3 µM; 5: > 100 µM
